Tested on: Rat 6 (R6T24) cells transfected and transformed by a c-H-ras oncogene
Test: Screening for cytotoxicity, cell count by Coulter Counter, R6T24 cells
Assay type: cell-based
Conditions: Table V; R6T24 cell line; day 6 after addition
assay.endpoint: LD50 (Day 6) R6T24 (µM)
Unit µM implied. Number only.

Worked examples follow.
compound	assay.system	assay.endpoint	reported.value
C[C@@H]1CC[C@H]2[C@@H](C)C(=O)N(Cc3ccccc3F)[C@@H]3O[C@@]4(C)CC[C@@H]1[C@@]23OO4	Rat 6 (R6T24) cells transfected and transformed by a c-H-ras oncogene	LD50 (Day 6) R6T24	1.69
C[C@@H]1CC[C@H]2[C@@H](C)C(=O)N(Cc3ccccc3)[C@@H]3O[C@@]4(C)CC[C@@H]1[C@@]23OO4	Rat 6 (R6T24) cells transfected and transformed by a c-H-ras oncogene	LD50 (Day 6) R6T24	5.24
C[C@@H]1CC[C@H]2[C@@H](C)C(OC(=O)c3c4ccccc4nc4ccccc34)O[C@@H]3O[C@@]4(C)CC[C@@H]1[C@]32OO4 (stereo partly drawn)	Rat 6 (R6T24) cells transfected and transformed by a c-H-ras oncogene	LD50 (Day 6) R6T24	1.60
C[C@@H]1CC[C@H]2[C@@H](C)C(Nc3ccc(F)cc3)O[C@@H]3O[C@@]4(C)CC[C@@H]1[C@]32OO4 (stereo partly drawn)	Rat 6 (R6T24) cells transfected and transformed by a c-H-ras oncogene	LD50 (Day 6) R6T24	0.14
C[C@H]1[C@H](OC(=O)CCC(=O)O)O[C@@H]2O[C@@]3(C)CC[C@H]4[C@H](C)CC[C@@H]1[C@@]24OO3 [Artesunate, artesunate, reference compound]	Rat 6 (R6T24) cells transfected and transformed by a c-H-ras oncogene	LD50 (Day 6) R6T24	1.04

Next, consider the following compound.
Task item: Lookup: LD50 (Day 6) R6T24 / Rat 6 (R6T24) cells transfected and transformed by a c-H-ras oncogene / CC1CCC2[C@@H](C)C(O)OC3O[C@]4(C)CCC1C32OO4 (stereo partly drawn) [Dihydroartemisinin, dihydroartemisinin, reference compound]
Reply: 0.24

###

Tested on: Rat 6 subclone of the immortalized F2408 embryo cell line (R6)
Assay: Screening for cytotoxicity, cell count by Coulter Counter, R6 cells
Type: cell-based
Conditions: Table V, day 3 after addition
Description: Compounds of the invention were screened against Rat 6 subclone of the immortalized F2408 embryo cell line, and Rat 6 (R6T24) cells transfected and transformed by a c-H-ras oncogene. The screening involved placing the R6 and R6T24 cell lines plated at 10^3 cells per well into a 12-well microtiter culture plate for 24 hours. The compounds were added at final concentrations from 0.1-100 μM, and cells were trypsized and counted by Coulter Counter at day 3 and day 6 after the addition. […]
Rule: LD50 (Day 3) R6 below 2 µM gives Yes. Equal to or above 2 µM gives No.

Observe how each entry below is paired with its result.
molecule	assay.system	class.name
COc1cc(OC)c(C2OC3OC4(C)CCC5C(C)CCC(C2C)C35OO4)c(OC)c1 (mixture of isomers)	Rat 6 subclone of the immortalized F2408 embryo cell line (R6)	Yes
C[C@@H]1CC[C@H]2[C@@H](C)C(=O)N(Cc3cccc(F)c3)[C@@H]3O[C@@]4(C)CC[C@@H]1[C@@]23OO4	Rat 6 subclone of the immortalized F2408 embryo cell line (R6)	No

Task item: Does this molecule meet the criterion LD50 (Day 3) R6 < 2 µM? CC1CCC2[C@@H](C)C(O)OC3O[C@]4(C)CCC1C32OO4 (stereo partly shown) [Dihydroartemisinin, dihydroartemisinin, reference compound]
Reply: Yes

Task item: Request: CC1CCC2C(C)C(F)OC3OC4(C)CCC1C32OO4 (stereo not drawn) [Example 1, 10β-fluoro-10-deoxodihydroartemisinin]
Reply: Yes

Task item: Request: CC1CCC2C(C)C(OCC(F)(F)F)OC3OC4(C)CCC1C32OO4 (stereo not shown)
Reply: Yes

Task item: Request: CC1CCC2[C@@H](C)C(=O)OC3O[C@]4(C)CCC1C32OO4 (stereo partly shown) [Artemisinin, artemisinin, reference compound]
Reply: No

Task item: Request: CC1CCC2C(C)C(OC(=O)c3ccc4c(c3)C(=O)c3ccccc3C4=O)OC3OC4(C)CCC1C32OO4 (stereo not shown)
Reply: Yes

Task item: Request: C[C@H]1[C@H](OC(=O)CCC(=O)O)O[C@@H]2O[C@@]3(C)CC[C@H]4[C@H](C)CC[C@@H]1[C@@]24OO3 [Artesunate, artesunate, reference compound]
Reply: No

Task item: Request: COc1ccc(C2OC3OC4(C)CCC5C(C)CCC(C2C)C35OO4)c(OC)c1 (stereo not shown)
Reply: Yes

Task item: Request: CC1CCC2C(CN(Cc3ccccc3)Cc3ccccc3)C(=O)OC3OC4(C)CCC1C32OO4 (stereo not shown)
Reply: Yes

###

Here, each record is paired with measured LD50 (Day 6) R6 data.
System: Rat 6 subclone of the immortalized F2408 embryo cell line (R6)
Experiment: Screening for cytotoxicity, cell count by Coulter Counter, R6 cells
Type: cell-based
Conditions: Table VA, day 6 after addition
Unit µM implied. Number only.

Worked examples follow.
>>> print(df.to_string())
                                   compound   assay_endpoint  reported_value
0  CC1CCC2C(C)C(OC(=O)c3ccc4c(c3)C(=O)c3ccccc3C4=O)OC3OC4(C)CCC1C32OO4 (stereo not drawn) [Example 66]  LD50 (Day 6) R6             3.6
1  CC1CCC2C(C)C(OCc3cccc4c3ccc3ccccc34)OC3OC4(C)CCC1C32OO4 (stereo not drawn) [Example 82]  LD50 (Day 6) R6            0.12

Task item: Entry under review: CO[C@H]1O[C@@H]2O[C@@]3(C)CC[C@H]4[C@H](C)CC[C@@H]([C@H]1C)[C@@]24OO3 [Artemether, artemether, reference compound] . Reported LD50 (Day 6) R6?
Reply: 0.6

###

Test system: Rat 6 subclone of the immortalized F2408 embryo cell line (R6)
Test: Screening for cytotoxicity, cell count by Coulter Counter, R6 cells
Assay type: cell-based
Conditions: Table VA, day 3 after addition
assay.endpoint: LD50 (Day 3) R6 (µM)
Unit µM implied. Number only.

compound	scale.unit	LD50 (Day 3) R6
C[C@@H]1CC[C@H]2[C@@H](C)C(c3cc4ccccc4c4ccccc34)O[C@@H]3O[C@@]4(C)CC[C@@H]1[C@]32OO4 (stereo partly drawn)	µM	0.38
C[C@@H]1CC[C@H]2[C@@H](C)C(=O)N(Cc3ccccc3)[C@@H]3O[C@@]4(C)CC[C@@H]1[C@@]23OO4	µM	47.0
C[C@H]1[C@H](OC(=O)CCC(=O)O)O[C@@H]2O[C@@]3(C)CC[C@H]4[C@H](C)CC[C@@H]1[C@@]24OO3 [Artesunate, artesunate, reference compound]	µM	2.80

Next, consider the following compound.
Task item: Entry under review: CC1CCC2C(C)C(F)OC3OC4(C)CCC1C32OO4 (stereo not drawn) [Example 1, 10β-fluoro-10-deoxodihydroartemisinin] . Reported LD50 (Day 3) R6?
Reply: 1.28

###

Here, each record is paired with measured LD50 (Day 3) R6 data.
Tested on: Rat 6 subclone of the immortalized F2408 embryo cell line (R6)
Assay: Screening for cytotoxicity, cell count by Coulter Counter, R6 cells
Type: cell-based
Details: Table V, day 3 after addition
Unit µM implied. Number only.

Worked examples follow.
>>> print(df.to_string())
                                   molecule  reported_value
0  C[C@@H]1CC[C@H]2[C@@H](C)C(=O)N(Cc3ccccc3)[C@@H]3O[C@@]4(C)CC[C@@H]1[C@@]23OO4           46.67
1  CCOC(=O)CCC1C(=O)OC2OC3(C)CCC4C(C)CCC1C24OO3 (stereo not drawn) [Example 19, 9-[2-(ethoxycarbonyl)ethyl]artemisinin]           52.00

Next, consider the following molecule.
Task item: Lookup: LD50 (Day 3) R6 / Rat 6 subclone of the immortalized F2408 embryo cell line (R6) / C[C@@H]1CC[C@H]2[C@@H](C)C(OC(=O)c3c4ccccc4nc4ccccc34)O[C@@H]3O[C@@]4(C)CC[C@@H]1[C@]32OO4 (stereo partly drawn)
Reply: 2.73

###

Here, each record is paired with measured LD50 (Day 3) R6 data.
System: Rat 6 subclone of the immortalized F2408 embryo cell line (R6)
Assay: Screening for cytotoxicity, cell count by Coulter Counter, R6 cells
Format: cell-based
Settings: Table VA, day 3 after addition

Worked examples follow.
compound	reported.value
CO[C@H]1O[C@@H]2O[C@@]3(C)CC[C@H]4[C@H](C)CC[C@@H]([C@H]1C)[C@@]24OO3 [Artemether, artemether, reference compound]	>100 µM
CC1CC[C@H]2[C@@H](C)C(=O)NC3O[C@]4(C)CCC1C32OO4 (some centres unmarked) [Example 14, 11-azaartemisinin]	>50 µM
CC1CCC2[C@@H](C)C(=O)N(Cc3ccccc3)C3O[C@]4(C)CCC1C23O4 (some centres unmarked) [D, reference compound]	>50 µM
CC1CCC2[C@@H](C)C(=O)OC3O[C@]4(C)CCC1C32OO4 (some centres unmarked) [Artemisinin, artemisinin, reference compound]	>100.00 µM

Next, consider the following compound.
Task item: Entry under review: C[C@@H]1CC[C@H]2[C@@H](C)C(=O)N(Cc3ccccc3F)[C@@H]3O[C@@]4(C)CC[C@@H]1[C@@]23OO4 [Example 15, 11-aza-N-(2-fluorobenzyl)artemisinin] . Reported LD50 (Day 3) R6?
Reply: >50 µM
